We begin with a simple list: items and their reported geo mean.
- TARGET_DESC: T1, human B7-DC on 293T cells (human, UniProt Q9BQ51 20-273)
- T1 construct: whole, on cells; also called PD-L2
- T1 sequence (looked up): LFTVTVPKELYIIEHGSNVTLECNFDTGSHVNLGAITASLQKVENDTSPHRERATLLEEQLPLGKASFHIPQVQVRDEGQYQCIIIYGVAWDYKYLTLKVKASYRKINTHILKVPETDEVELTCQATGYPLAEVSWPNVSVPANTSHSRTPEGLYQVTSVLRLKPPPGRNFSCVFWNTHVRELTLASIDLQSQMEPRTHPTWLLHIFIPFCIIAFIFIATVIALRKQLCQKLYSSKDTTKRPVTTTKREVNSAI
- TEST_METHOD_NOTES: FACS, 5 µg/ml antibody, 293T cells transfected with human B7-DC
Could you respond with only the numeric value?

The examples below pair each entry with its known result.
{"BINDER": "2.20A8 (antibody, IgG2, V domains shown, also called mAb 2.20A8) VH: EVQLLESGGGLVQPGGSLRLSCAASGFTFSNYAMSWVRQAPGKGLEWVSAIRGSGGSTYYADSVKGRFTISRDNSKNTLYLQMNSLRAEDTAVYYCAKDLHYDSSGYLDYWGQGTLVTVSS VL: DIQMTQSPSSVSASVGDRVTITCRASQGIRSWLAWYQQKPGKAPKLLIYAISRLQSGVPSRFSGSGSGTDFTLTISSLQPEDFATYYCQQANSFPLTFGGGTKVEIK", "geo mean": 9.5}
{"BINDER": "3.18G1 (antibody, V domains shown, also called mAb 3.18G1) VH: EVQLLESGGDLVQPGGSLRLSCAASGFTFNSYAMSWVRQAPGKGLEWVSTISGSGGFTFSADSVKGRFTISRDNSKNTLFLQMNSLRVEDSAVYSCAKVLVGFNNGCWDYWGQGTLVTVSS VL: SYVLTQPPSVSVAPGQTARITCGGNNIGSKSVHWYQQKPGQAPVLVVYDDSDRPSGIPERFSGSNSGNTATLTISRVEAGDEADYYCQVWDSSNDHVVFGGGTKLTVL", "geo mean": 9.7}

# ---- query binder ----
*Q* Please report the recorded geo mean for 3.15G8 (antibody, IgG4, V domains shown, also called mAb 3.15G8) VH: EVQLVESGGGLVQPGGSLRLSCAASGFTFSSYWMSWVRQAPGKGLEWVANIKQDGGEKYYVDSVKGRFTISRDNAKNSLFLQMNSLRAEDTAVYYCARVQLYSDYFDYWGQGTLVTVSS VL: DIQMTQSPSSVSASVGDRVTITCRASQGISSWLAWYQQKSGKAPKLLIYAASGLQSGVPSRFSGSGSGTDFTLTISSLQPEDLATYYCQQSHSLPPTFGQGTKVEIK .
*A* 10.1
